I'd be grateful if you could share measured IC50 for these entries.
# subject.of.test: PKA catalytic subunit (Bos taurus)
# Construct: purchased UBI (Upstate Biotechnology) 14-114
# measurement.notes: PKA assay (counter screen), Kemptide phosphorylation
# Assay type: biochemical
# condition.details: read-out: Counter screens IC50 (μM) PKA

IC50 recorded for this molecule, CN(C)CC(C)(C)CNc1nn2c(-c3ccccc3)nnc2cc1C1CCC1 , is > 40 µM

Entry CN(C)CC(C)(C)CNc1nn2c(-c3cccc(F)c3)nnc2cc1C1CCC1 , IC50 reported as > 40 µM

Per the records, this molecule ( Nc1ccc(-c2nc3ccccc3nc2-c2ccc(N)cc2)cc1 ) has IC50 equal to > 80 µM

What the record says about CN(C)CC(C)(C)CNc1nn2c(-c3ccc(F)cc3)nnc2cc1C1CCC1 : IC50 is > 40 µM
